# Species: Rattus norvegicus
# procedure-details: Relaxant potency in rat aorta.
# Format: functional
measured-metric: Log 1/C
Lab note: jot down the number only; don't add units.

# example entries with known answers
INSERT INTO results (compound, measured_metric, observed) VALUES
  ('CC1(C)C=C(n2ccccc2=O)c2cc(C(=O)c3ccc([N+](=O)[O-])cc3)ccc2O1', 'Log 1/C', 6.2),
  ('CCC(=O)c1ccc2c(c1)C(n1ccccc1=O)=CC(C)(C)O2', 'Log 1/C', 6.63);

Q: Give a short answer stating reported Log 1/C for CC1(C)C=C(n2ccccc2=O)c2cc(OS(=O)(=O)F)ccc2O1 .
Ans: 7.95

From: ChEMBL document CHEMBL1132616
